Source of measurements: patent US20050101595A1

# assayed.target: human CDK4 and genetically truncated (1-264) cyclin D3 (Homo sapiens)
# Sequence (P11802 whole entry, the tested form may be a part): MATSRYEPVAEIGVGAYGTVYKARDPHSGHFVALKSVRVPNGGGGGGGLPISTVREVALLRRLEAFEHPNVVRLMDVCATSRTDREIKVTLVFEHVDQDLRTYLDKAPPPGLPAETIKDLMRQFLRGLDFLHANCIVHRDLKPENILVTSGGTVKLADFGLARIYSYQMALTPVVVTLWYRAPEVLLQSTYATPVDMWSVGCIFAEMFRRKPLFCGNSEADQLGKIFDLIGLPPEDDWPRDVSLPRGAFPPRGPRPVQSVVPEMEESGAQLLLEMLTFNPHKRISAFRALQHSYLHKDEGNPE
# Sequence (P30281 1-264 partner): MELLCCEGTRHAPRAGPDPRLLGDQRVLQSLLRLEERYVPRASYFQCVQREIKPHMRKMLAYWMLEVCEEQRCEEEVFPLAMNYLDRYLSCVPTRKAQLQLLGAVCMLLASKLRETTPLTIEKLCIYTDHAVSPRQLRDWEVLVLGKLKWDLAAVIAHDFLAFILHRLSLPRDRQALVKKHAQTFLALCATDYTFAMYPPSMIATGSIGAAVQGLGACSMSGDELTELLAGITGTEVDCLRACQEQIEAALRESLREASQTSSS
# protocol.details: Inhibition of CDK4/Cyclin D Retinoblastoma Kinase Activity
# condition: apparent Ki, CDK4/truncated cyclin D3, Rb fragment substrate, 25 μM ATP
Counter-ions that a name gives are not always drawn.
metric.name: Ki (nM)

The examples below pair each entry with its known result.
compound=Cn1cncc1C(=O)N1CCC(Nc2nc(N)c(C(=O)c3c(F)cccc3F)s2)CC1 value_measured=51
compound=Nc1nc(NC2CCN(Cc3ccccn3)CC2)sc1C(=O)c1c(F)cccc1F value_measured=240
compound="Nc1nc(NC2CCN(S(=O)(=O)c3ccc(CN4CCCC4)cc3)CC2)sc1C(=O)c1c(F)cccc1F [Example J6, Hydrochloride]" value_measured=0.58
compound="CN1CCN(c2ncc(S(=O)(=O)N3CCC(Nc4nc(N)c(C(=O)c5c(F)cccc5F)s4)CC3)cn2)CC1 [Example G34, Hydrochloride Salt]" value_measured=0.57
compound=COc1cc(C(=O)N2CCC(Nc3nc(N)c(C(=O)c4c(F)cccc4F)s3)CC2)cc(OC)c1C value_measured=18

[P] C[C@@H]1CN(c2ncc(S(=O)(=O)N3CCC(Nc4nc(N)c(C(=O)c5c(F)cccc5F)s4)CC3)cn2)C[C@H](C)N1 [Example G33, Hydrochloride Salt]
[Q] Nc1nc(NC2CCN(C(=O)c3ccc(Cl)nc3)CC2)sc1C(=O)c1c(F)cccc1F
Input: // compare measured Ki between P and Q ; output the lower one Answer format: the label of the selected item.
Output: P
(P: 0.3 nM, Q: 20 nM)

* * *

# Test system: HCT-116 cell line
# protocol.details: Inhibition of cell growth, tetrazolium salt (MTT) assay
# Format: cell-based
# condition: Homo sapiens, HCT-116, 120 h, first HCT-116 column (c4); MTT, three to five days; read-out: HCT-116 IC50
pIC50: −log10 of the molar value. Where a name gives a salt, the structure may show the parent alone.
metric.name: pIC50

The examples below pair each entry with its known result.
compound="Cn1cnc(-c2ccc(S(=O)(=O)N3CCC(Nc4nc(N)c(C(=O)c5c(F)cccc5F)s4)CC3)cn2)c1 [Example I5, Hydrochloride]" value_measured=7.10
compound="N#C/C(=C\\c1cccc(O)c1)C(=O)N1CCC(Nc2nc(N)c(C(=O)c3c(F)cccc3F)s2)CC1 [Example D13, Trifluoroacetic Acid Salt]" value_measured=5.89
compound=CC1CCN(CCCS(=O)(=O)N2CCC(Nc3nc(N)c(C(=O)c4c(F)cccc4F)s3)CC2)CC1 value_measured=6.82

[1] CN(C)CCOc1ncc(S(=O)(=O)N2CCC(Nc3nc(N)c(C(=O)c4c(F)cccc4F)s3)CC2)cn1 [Example H24, Trifluoroacetic Acid Salt]
[2] Nc1nc(NC2CCN(S(=O)(=O)c3ccc(-n4ccnc4)nc3)CC2)sc1C(=O)c1c(F)cccc1F [Example G25, Trifluoroacetic Acid Salt]
Input: Pick the one with the larger pIC50: 1 vs 2 Answer format: the label of the selected item.
Output: 2
(2: 7.20, 1: 6.85)

* * *

# Tested on: HCT-116 cell line
# protocol.details: Inhibition of cell growth, tetrazolium salt (MTT) assay
# Format: cell-based
# condition: Homo sapiens, HCT-116, 120 h, first HCT-116 column (c4); MTT, three to five days; read-out: HCT-116 IC50
Counter-ions that a name gives are not always drawn.
metric.name: IC50 (nM)

The examples below pair each entry with its known result.
compound=Nc1nc(NC2CCN(S(=O)(=O)CCCN3CCOCC3)CC2)sc1C(=O)c1c(F)cccc1F metric_name=IC50 value_measured=600
compound="Nc1nc(NC2CCN(S(=O)(=O)c3ccc(CCNc4cccc(O)c4)nc3)CC2)sc1C(=O)c1c(F)cccc1F [Example N6, Hydrochloride Salt]" metric_name=IC50 value_measured=410
compound=Nc1nc(NC2CCN(C(=O)c3ccc(Br)cc3)CC2)sc1C(=O)c1c(F)cccc1F metric_name=IC50 value_measured=720
compound="CN1CCC[C@H](Oc2ccc(S(=O)(=O)N3CCC(Nc4nc(N)c(C(=O)c5c(F)cccc5F)s4)CC3)cn2)C1 [Example H29, Hydrochloride]" metric_name=IC50 value_measured=36

[A] Nc1nc(NC2CCN(S(=O)(=O)CCN(Cc3ccccc3)CC3CC3)CC2)sc1C(=O)c1c(F)cccc1F
[B] CN(C)CCOc1ccc(S(=O)(=O)N2CCC(Nc3nc(N)c(C(=O)c4c(Cl)cccc4Cl)s3)CC2)cn1 [Example H17, Hydrochloride Salt]
Input: Pick the one with the larger IC50: A vs B Answer format: the label of the selected item.
Output: A
